experiment: qHTS assay to test for compound auto fluorescence at 535 nm (green) in HepG2 cells (AID 720675); details: green autofluorescence 485/535 nm, 1 h; series mostly up to 91.3 µM
Active and inactive are the calls of the source. Calls come from the whole dose curve; as a rule, active = well fitted curve in the direction sought with a large enough effect in the repeat runs; inconclusive = weak or mixed curves; inactive = flat fitted curve, though single readings scatter.
quantity-kind: outcome

Example entries begin here.
{"molecule": "NC[C@H](O)c1ccc(O)c(O)c1", "outcome": "inactive"}
{"molecule": "c1ccc2c(c1)[nH]c1ccccc12", "outcome": "inactive"}
{"molecule": "CCCN1C=CN(C)C1", "outcome": "inactive"}
{"molecule": "CCOC(=O)C(C)Oc1ccc(Oc2cnc3cc(Cl)ccc3n2)cc1 (configuration not stated)", "outcome": "inactive"}
{"molecule": "C=CC(C)(O)CCC=C(C)C (configuration not stated)", "outcome": "inactive"}

Entry CC(=O)OC(C)C has what outcome?
inactive

Please give the measured outcome for this molecule: CC(C)=CCO
inactive

Param item = O=C(O)c1ccc(O)cc1 ; retrieve measured outcome.
inactive

Requested field: outcome. Item: c1ccc2c(c1)ccc1ncccc12
inactive

Name the reported outcome value associated with the molecule Nc1cc([N+](=O)[O-])ccc1C(=O)O
inactive

Query: outcome; subject: CC(C)[N+](C)(CCOC(=O)C1c2ccccc2Oc2ccccc21)C(C)C
inactive

* * *

test: Caspase-3/7 induction in HepG2 cells by small molecules, qHTS cell viability counter screen (AID 1346981); conditions: CellTiter-Fluor fluorescence, 17 h; series mostly up to 92.4 µM; note: nearly all actives have a fitted effect of over 30% in size
Records with an inconclusive call do not appear. Activity calls are given as the source filed them. Calls follow the shape of the dose curve; as a rule, active = well fitted cell-killing curve with a large enough effect in the repeat runs; inconclusive = weak or mixed curves, or effect the other way; inactive = flat fitted curve, though single readings scatter.
Output constraint: value belongs to active, inactive

{"molecule": "CN(C)C", "class-label": "inactive"}

Assay result, entry COC(=O)CC(=O)OC — outcome?
inactive

Please state the recorded outcome for this molecule: Nc1ccc(N)c(Cl)c1
active

Recorded test call requested for C=C[C@@]1(C)CC(=O)[C@]2(O)[C@@]3(C)[C@@H](O)CCC(C)(C)[C@@H]3[C@H](O)[C@H](OC(C)=O)[C@@]2(C)O1
inactive

Dear colleague, could you share the recorded outcome for CCCCCCCCCCC(CO)CCCCCCCC (centres undefined) when you have a moment?
inactive

Would you mind telling me which call this test gave c1ccc2c(c1)ccc1ncccc12 ?
inactive

Answer briefly: the call reported for ClC/C=C/CCl in this assay.
inactive

Test call for this molecule, please: CC1=CC(C)(C)Nc2ccccc21
inactive

Returns: the outcome recorded for CCCCCC1C(=O)CCC1CC(=O)OC (centres undefined) in this assay.
inactive

* * *

test: qHTS assay to identify small molecule antagonists of the estrogen receptor alpha (ER-alpha) signaling pathway using the BG1 cell line (AID 743080); settings: BG1Luc4E2 ERE-luciferase antagonist mode, luminescence; series mostly up to 70.3 µM;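 note: BG1 cells stimulated with 17beta-estradiol alongside compound; nearly all actives have a fitted effect of over 25% in size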
Records with an inconclusive call do not appear. Activity calls are given as the source filed them. Calls follow the shape of the full dose curve.
quantity-kind: outcome

{"compound": "C1CN(SSN2CCOCC2)CCO1", "outcome": "inactive"}
{"compound": "C=C1C[C@H]2[C@@H]3C=C(C)C4=CC(=O)CC[C@]4(C)[C@H]3CC[C@]2(C)[C@@]1(OC(C)=O)C(C)=O", "outcome": "inactive"}
{"compound": "O=[Se](O)O", "outcome": "inactive"}
{"compound": "CC(=O)OC(C)C", "outcome": "inactive"}

GET /values?readout=outcome&item= FC(F)(F)C(Cl)Br (centres undefined)
inactive

Looking for the measured outcome of COC(=O)C(C)Oc1ccc(Oc2ncc(C(F)(F)F)cc2Cl)cc1 (centres undefined) , can you help?
inactive

Query (compound): CC(=O)[C@H]1CC[C@H]2[C@@H]3CC=C4C[C@@H](O)CC[C@]4(C)[C@H]3CC[C@]12C ; field requested: outcome
inactive

Value lookup for outcome; key = O=C1CCc2ccccc2O1
inactive

Which outcome value belongs to Oc1c(Cl)ccc(Cl)c1Cl ?
inactive

* * *

assay: qHTS RealTime-Glo MT Cell Viability Assay in HEK293 cells - 24 hour (AID 1224886); details: RealTime-Glo luminescence; series mostly up to 76.8 µM; note: nearly all actives have a fitted effect of over 50% in size
Results filed as inconclusive are left out. Calls of active or inactive are those of the source. Calls follow the shape of the dose curve; as a rule, active = well fitted cell-killing curve with a large enough effect in the repeat runs; inconclusive = weak or mixed curves, or effect the other way; inactive = flat fitted curve, though single readings scatter.
Field 'call' accepts active, inactive

{"compound": "CC(=O)O[C@]1(C(C)=O)CC[C@H]2[C@@H]3C=C(Cl)C4=CC(=O)CC[C@]4(C)[C@H]3CC[C@@]21C", "class-label": "active"}
{"compound": "C=C[C@H]1CN2CC[C@H]1C[C@H]2[C@H](O)c1ccnc2ccc(OC)cc12", "class-label": "inactive"}
{"compound": "CCc1cccc2c3c([nH]c12)C(CC)(CC(=O)O)OCC3 (configuration not stated)", "class-label": "inactive"}
{"compound": "CC1(C)OC(=O)NC1=O", "class-label": "inactive"}

Entry Cc1ccc(C)c(O)c1 : call = ?
inactive

Per the records of this test, what outcome belongs to NCCN ?
inactive

Could you please tell me the result logged for CN1CCOCC1 in this assay?
inactive

* * *

target: Nuclear receptor subfamily 1 group I member 2 (Homo sapiens) (UniProt O75469); assay: Human pregnane X receptor (PXR) small molecule agonists, qHTS assay (AID 1346982); settings: PXR-Luc HepG2, CYP3A4 luciferase reporter, 24 h; series mostly up to 92.4 µM; note: nearly all actives have a fitted effect of over 35% in size
Sequence (O75469 whole entry, looked up): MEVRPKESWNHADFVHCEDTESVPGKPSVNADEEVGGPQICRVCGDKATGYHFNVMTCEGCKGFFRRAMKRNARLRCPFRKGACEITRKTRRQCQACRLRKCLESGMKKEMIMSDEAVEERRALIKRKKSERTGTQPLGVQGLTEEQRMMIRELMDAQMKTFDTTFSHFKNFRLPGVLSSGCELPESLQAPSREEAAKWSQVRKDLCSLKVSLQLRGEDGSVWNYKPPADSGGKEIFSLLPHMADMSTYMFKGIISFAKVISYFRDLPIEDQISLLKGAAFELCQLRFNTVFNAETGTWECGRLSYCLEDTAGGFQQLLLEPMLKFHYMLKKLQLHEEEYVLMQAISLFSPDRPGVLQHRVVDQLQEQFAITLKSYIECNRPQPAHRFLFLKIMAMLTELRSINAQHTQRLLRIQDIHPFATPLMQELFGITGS
Results filed as inconclusive are left out. The source made the active and inactive calls. Calls come from the whole dose curve; as a rule, active = well fitted activation curve with a large enough effect in the repeat runs; inconclusive = weak or mixed curves; inactive = no such curve, though single readings can be large or run the other way.
Result category, one only: active, inactive

{"compound": "CCC/C=C/C=O", "class-label": "inactive"}

Check the results log: what was the call for CCCCCCC(C)O (stereo not drawn) ?
inactive

Check the results log: what was the call for C[C@]12C=CC(=O)C=C1CC[C@H]1[C@@H]3C[C@@H](O)[C@](O)(C(=O)CO)[C@@]3(C)C[C@H](O)[C@@]12F ?
inactive

Returns: the outcome recorded for CCCCCCCC/C=C\CCCCCCCC(=O)O in this assay.
inactive

Hey, what did the test say about O=C(O)c1ccc(O)cc1 ?
inactive

Recorded test call requested for CC(=O)[C@@]1(O)CC[C@H]2[C@@H]3C[C@H](C)C4=CC(=O)C=C[C@]4(C)[C@@]3(F)[C@@H](O)C[C@@]21C
active

// param item: Nc1ccc2c(O)cc(S(=O)(=O)O)cc2c1 ; yields the recorded call
active

Which outcome was entered for the compound C=CC(C)(O)CCC=C(C)C (stereo not drawn) in this test?
inactive

* * *

target: Progesterone receptor (Homo sapiens) (UniProt P06401); assay: qHTS assay to identify small molecule agonists of the progesterone receptor (PR) signaling pathway (AID 1346784); settings: PR-UAS-bla HEK293T, beta-lactamase FRET ratio, 16 h; series mostly up to 92.4 µM; note: nearly all actives have a fitted effect of over 30% in size
Sequence (P06401 whole entry, looked up): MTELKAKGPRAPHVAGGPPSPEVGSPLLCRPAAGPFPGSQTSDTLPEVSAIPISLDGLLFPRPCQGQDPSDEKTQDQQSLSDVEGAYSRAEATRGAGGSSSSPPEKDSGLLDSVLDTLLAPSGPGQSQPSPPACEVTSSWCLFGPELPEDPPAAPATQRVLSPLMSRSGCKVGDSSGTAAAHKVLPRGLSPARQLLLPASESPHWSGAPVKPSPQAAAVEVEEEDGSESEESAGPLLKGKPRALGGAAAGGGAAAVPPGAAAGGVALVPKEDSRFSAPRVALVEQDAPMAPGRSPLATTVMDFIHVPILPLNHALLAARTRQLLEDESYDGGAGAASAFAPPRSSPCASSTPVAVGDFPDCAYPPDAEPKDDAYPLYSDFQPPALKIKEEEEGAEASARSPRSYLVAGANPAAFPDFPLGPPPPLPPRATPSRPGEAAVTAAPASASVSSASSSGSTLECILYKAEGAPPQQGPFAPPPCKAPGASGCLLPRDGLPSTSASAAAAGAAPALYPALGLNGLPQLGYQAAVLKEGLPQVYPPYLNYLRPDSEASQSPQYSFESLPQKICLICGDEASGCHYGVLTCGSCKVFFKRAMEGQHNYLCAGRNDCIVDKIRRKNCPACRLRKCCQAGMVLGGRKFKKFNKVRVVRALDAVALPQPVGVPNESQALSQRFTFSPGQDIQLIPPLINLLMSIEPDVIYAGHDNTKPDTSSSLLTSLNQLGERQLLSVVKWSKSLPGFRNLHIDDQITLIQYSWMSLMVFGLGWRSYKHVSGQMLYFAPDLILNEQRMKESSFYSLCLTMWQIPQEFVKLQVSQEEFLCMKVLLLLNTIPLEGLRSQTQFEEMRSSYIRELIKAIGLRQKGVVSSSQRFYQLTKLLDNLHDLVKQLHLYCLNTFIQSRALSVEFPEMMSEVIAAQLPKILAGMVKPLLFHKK
Inconclusive results are not listed. Calls of active or inactive are those of the source. Calls follow the shape of the full dose curve.
quantity-kind: outcome

Previously resolved entries follow.
{"smiles-text": "CN(C)CCCN1c2ccccc2Sc2ccc(Cl)cc21", "outcome": "inactive"}
{"smiles-text": "CC(C)=CCO", "outcome": "inactive"}
{"smiles-text": "OCCNCCO", "outcome": "inactive"}
{"smiles-text": "CC(=O)Oc1ccc(C(c2ccc(OC(C)=O)cc2)c2ccccn2)cc1", "outcome": "inactive"}

GET /values?readout=outcome&system=Progesterone receptor (Homo sapiens) (UniProt P06401)&item= Cc1ccc(C)c(O)c1
inactive

Form: Entry = Nc1ccc(O)c(N)c1 | System = Progesterone receptor (Homo sapiens) (UniProt P06401) | outcome = ____
inactive

Form field - read-out: outcome; system: Progesterone receptor (Homo sapiens) (UniProt P06401); submitted item: CCC(=O)O[C@H]1[C@H](O[C@@H]2[C@@H](C)[C@H](O[C@H]3C[C@@](C)(OC)[C@@H](O)[C@H](C)O3)[C@@H](C)C(=O)O[C@H](CC)[C@@](C)(O)[C@H](O)[C@@H](C)C(=O)[C@H](C)C[C@@]2(C)O)O[C@H](C)C[C@@H]1N(C)C
inactive

Lookup: outcome / Progesterone receptor (Homo sapiens) (UniProt P06401) / CCCN1C=CN(C)C1
inactive

Lab request: please report outcome under test system Progesterone receptor (Homo sapiens) (UniProt P06401) for IC(I)I
inactive

Identify the measured outcome of CN(C)/N=N/c1nc[nH]c1C(N)=O for Progesterone receptor (Homo sapiens) (UniProt P06401).
inactive

* * *

experiment: qHTS assay to identify small molecule agonists of H2AX (AID 1224845); settings: CHO-K1 phospho-H2AX Ser139 HTRF, 3 h; series mostly up to 154 µM
Records with an inconclusive call do not appear. Activity calls are given as the source filed them. Calls come from the whole dose curve; as a rule, active = well fitted activation curve with a large enough effect in the signal ratio in the repeat runs (not every such curve was filed as active); inconclusive = weak or mixed curves; inactive = flat fitted curve, though single readings scatter; the % refers to the signal ratio.
quantity-kind: outcome

{"smiles-text": "C=C[C@H]1CN2CC[C@H]1C[C@@H]2[C@@H](O)c1ccnc2ccc(OC)cc12", "quantity-kind": "outcome", "value-measured": "inactive"}
{"smiles-text": "OC[C@H]1O[C@@H]2O[C@H]3[C@H](O)[C@@H](O)[C@@H](O[C@H]4[C@H](O)[C@@H](O)[C@@H](O[C@H]5[C@H](O)[C@@H](O)[C@@H](O[C@H]6[C@H](O)[C@@H](O)[C@@H](O[C@H]7[C@H](O)[C@@H](O)[C@@H](O[C@H]1[C@H](O)[C@H]2O)O[C@@H]7CO)O[C@@H]6CO)O[C@@H]5CO)O[C@@H]4CO)O[C@@H]3CO", "quantity-kind": "outcome", "value-measured": "inactive"}
